In this section, each of the compounds is paired with its reported pIC50.
Test system: DU-145
assay: MTT assay of anti-tumor activity, DU-145
Assay type: cell-based
experimental-setup: Homo sapiens, DU-145, 72 h, DU-145 cells
The meaning of pIC50 here: minus log10 of the concentration in molar units.

Past entries and their recorded results:
COc1cc(OC)cc(-c2ncoc2-c2ccc(OC)c(O)c2N)c1
6.55
COc1ccc(/C=C\c2cc(OC)c(OC)c(OC)c2)cc1O [CA4, reference compound]
8.14

Entry under review: COc1cc(-c2ncn(-c3cc(OC)c(OC)c(OC)c3)c2-c2ccc(N(C)C)cc2)cc(OC)c1OC . Reported pIC50?
7.03

Which pIC50 reading was recorded for the compound COc1cc(OC)cc(-c2ncoc2-c2ccc(OC)c(O)c2)c1 ?
8.60

Need pIC50, item COc1cc(OC)cc(-c2ncn(C)c2-c2ccc(OC(F)F)c(N)c2)c1
6.79

// returns reported pIC50 for input COc1cc(OC)cc(-c2nc[nH]c2-c2ccc(OC)c(O)c2N)c1
6.91

Quick one: pIC50 of COc1cc(OC)cc(-c2ncn(CCO)c2-c2ccc(OC)c(F)c2)c1 ?
7.99

All values here come from patent US9139574B2.
